meta.source: BindingDB's records for patent US11547697

studyTarget: Phosphatidylinositol 4,5-bisphosphate 3-kinase catalytic subunit delta isoform (Homo sapiens, UniProt O00329)
Sequence (O00329 whole entry, canonical isoform): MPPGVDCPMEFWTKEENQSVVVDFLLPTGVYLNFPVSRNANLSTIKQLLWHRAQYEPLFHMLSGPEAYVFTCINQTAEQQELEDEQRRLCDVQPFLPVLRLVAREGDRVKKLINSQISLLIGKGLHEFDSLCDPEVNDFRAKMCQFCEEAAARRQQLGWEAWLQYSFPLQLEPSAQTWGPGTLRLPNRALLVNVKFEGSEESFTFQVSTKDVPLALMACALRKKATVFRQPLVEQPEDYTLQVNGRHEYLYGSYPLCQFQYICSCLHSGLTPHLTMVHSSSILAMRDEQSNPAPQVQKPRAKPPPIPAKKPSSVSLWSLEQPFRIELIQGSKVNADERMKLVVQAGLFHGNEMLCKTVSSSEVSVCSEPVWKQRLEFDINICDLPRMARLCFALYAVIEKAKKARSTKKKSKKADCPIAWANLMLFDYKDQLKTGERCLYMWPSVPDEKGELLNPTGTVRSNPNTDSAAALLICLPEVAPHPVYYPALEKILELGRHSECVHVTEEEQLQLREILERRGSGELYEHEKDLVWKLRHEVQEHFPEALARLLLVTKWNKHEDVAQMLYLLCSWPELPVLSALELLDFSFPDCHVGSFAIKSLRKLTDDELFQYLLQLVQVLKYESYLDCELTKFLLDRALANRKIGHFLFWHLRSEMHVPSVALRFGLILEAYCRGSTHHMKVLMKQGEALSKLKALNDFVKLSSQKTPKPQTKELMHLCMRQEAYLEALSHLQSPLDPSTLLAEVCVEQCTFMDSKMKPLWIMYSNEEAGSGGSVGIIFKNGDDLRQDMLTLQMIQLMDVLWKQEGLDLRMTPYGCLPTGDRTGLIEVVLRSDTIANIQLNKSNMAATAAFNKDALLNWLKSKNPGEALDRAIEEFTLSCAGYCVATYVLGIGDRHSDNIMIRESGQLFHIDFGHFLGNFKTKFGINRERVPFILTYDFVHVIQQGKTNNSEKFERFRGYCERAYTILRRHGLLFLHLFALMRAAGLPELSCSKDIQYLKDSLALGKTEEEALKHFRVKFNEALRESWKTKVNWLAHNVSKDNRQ
testDescription: Inhibition Assay of PI3K
pIC50: −log10 of the molar value.
experimentalEndpoint: pIC50

Some solved entries appear below for comparison.
> print(dat)
                          compoundstructure  valuereported
1  CNS(=O)(=O)c1cccc(-c2ccc3ncc(C(=O)N4CCOCC4)n3c2)c1         < 5.00
2  O=C(c1cnc2ccc(-c3cccc(S(=O)(=O)Nc4ccccc4)c3)cn12)N1CCOCC1         < 5.00
3  Nc1nc2ccc(-c3ccc4nnc(-c5cccnc5)n4c3)cc2o1         < 5.00

Input line: Which measured pIC50 value corresponds to CN1CCCN(C(=O)c2cnc3ccc(-c4ccc5oc(N)nc5c4)cn23)CC1 ?
Output line: < 5.00

Input line: Which measured pIC50 value corresponds to Nc1nc2cc(-c3ccc4ncc(-c5cccnc5)nc4c3)ccc2o1 ?
Output line: < 5.00

Input line: Which measured pIC50 value corresponds to CC(=O)Nc1n[nH]c2ccc(-c3ccc4oc(N)nc4c3)cc12 ?
Output line: < 5.00

Input line: Which measured pIC50 value corresponds to Nc1cc(-c2ccc3ncc(C(=O)N4CCOCC4)n3c2)cnc1Cl ?
Output line: < 5.00

Input line: Which measured pIC50 value corresponds to Nc1nc2cc(-c3cnc4ncc(-c5ccncc5)n4c3)ccc2o1 ?
Output line: < 5.00

Input line: Which measured pIC50 value corresponds to C[C@H]1CN(c2cnc3ccc(-c4cccc5c(N)noc45)cc3n2)CCN1 ?
Output line: < 5.00

Input line: Which measured pIC50 value corresponds to Nc1nc2cc(-c3ccc4ncc(N5CCC(n6cccn6)CC5)nc4c3)ccc2o1 ?
Output line: < 5.00

Input line: Which measured pIC50 value corresponds to CS(=O)(=O)Nc1cc(-c2ccc3ncc(C(=O)N4CCOCC4)n3c2)ccc1Cl ?
Output line: < 5.00

---

studyTarget: Phosphatidylinositol 4,5-bisphosphate 3-kinase catalytic subunit delta isoform (Homo sapiens, UniProt O00329)
testDescription: Inhibition Assay of PI3K
pIC50: −log10 of the molar value.
experimentalEndpoint: pIC50

> print(dat)
                                   molecule  experimentalendpoint  valuereported
1  C[C@H]1CN(c2cnc3ccc(-c4ccc5nc(N)sc5c4)cc3n2)CCN1 [US11547697, Compound 308]                 pIC50         < 5.00
2  Nc1nc2cc(-c3ccc4ncn(C5CCOCC5)c(=O)c4c3)ccc2o1 [US11547697, Compound 55]                 pIC50         < 5.00
3  Cc1nc(NC(=O)N2CCC[C@H]2C(N)=O)sc1-c1ccc2oc(N)nc2c1 [US11547697, Compound 311]                 pIC50         < 5.00
4  CC(C)n1cnc2ccc(-c3ccc4oc(N)nc4c3)cc2c1=O [US11547697, Compound 206]                 pIC50         < 5.00
5  Nc1nc2cc(-c3ccc4ncc(=O)[nH]c4c3)ccc2o1 [US11547697, Compound 72]                 pIC50         < 5.00
6  Nc1nc2cc(-c3ccc4ncc(C(=O)N5CCOCC5)cc4c3)ccc2o1 [US11547697, Compound 97]                 pIC50         < 5.00

Input line: Which measured pIC50 value corresponds to Nc1noc2ccc(-c3ccc4nccc(-c5ccncc5)c4c3)cc12 [US11547697, Compound 18] ?
Output line: < 5.00

Input line: Which measured pIC50 value corresponds to Cc1ccc(-c2cnc3ccc(-c4ccc5oc(N)nc5c4)cc3n2)cn1 [US11547697, Compound 194] ?
Output line: < 5.00
